Test system: 217524-143-R1-J4-PDC spheroids with HUVEC/MSC, viability
test_method_notes: Anticancer human tumor 217524-143-R1-J4-PDC patient-derived pancreatic carcinoma cell line growth inhibition [CLK]; active = viability on the fitted dose curve at most 10% of control; inactive = the rest
condition_context: second compound 3.16 µM; first compound 0.03 µM
A correct response names exactly one class from 1.0 for active, 0.0 for inactive

CC(C)CC(NC(=O)C(Cc1ccccc1)NC(=O)c1cnccn1)B(O)O (stereo unspecified) + CN1CCN(c2cc(C(=O)Nc3cc4cc(-c5cnn(C)c5)ccc4cn3)ccn2)CC1
1.0
CC(C)CC(NC(=O)C(Cc1ccccc1)NC(=O)c1cnccn1)B(O)O (stereo unspecified) + CNC(=O)c1ccc(Nc2nc(OC3CCCC3)c3c(-c4ccc5nc(C)oc5c4)c[nH]c3n2)c(OC)c1
1.0
C=CC(=O)Nc1cc(Nc2nccc(-c3cn(C)c4ccccc34)n2)c(OC)cc1N(C)CCN(C)C + CNC(=O)c1ccc(Nc2nc(OC3CCCC3)c3c(-c4ccc5nc(C)oc5c4)c[nH]c3n2)c(OC)c1
0.0
NC(=O)C(=Cn1cnc(-c2cc(C(F)(F)F)cc(C(F)(F)F)c2)n1)c1cncnc1 + CNC(=O)c1ccc(Nc2nc(OC3CCCC3)c3c(-c4ccc5nc(C)oc5c4)c[nH]c3n2)c(OC)c1
0.0
C=CC(=O)Nc1cc(Nc2nccc(-c3cn(C)c4ccccc34)n2)c(OC)cc1N(C)CCN(C)C + CN1CCN(c2cc(C(=O)Nc3cc4cc(-c5cnn(C)c5)ccc4cn3)ccn2)CC1
1.0

Now look at this entry.
Incoming: Field: outcome | Entry: NC(=O)C(=Cn1cnc(-c2cc(C(F)(F)F)cc(C(F)(F)F)c2)n1)c1cncnc1 + CN1CCN(c2cc(C(=O)Nc3cc4cc(-c5cnn(C)c5)ccc4cn3)ccn2)CC1
Outgoing: 1.0

* * *

System: 217524-143-R1-J4-PDC spheroids with HUVEC/MSC, viability
test_method_notes: Anticancer human tumor 217524-143-R1-J4-PDC cell line growth inhibition [CLK];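 note: spheroids exposed to agents for seven days before reading; 100% = DMSO vehicle control viability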
condition_context: second compound 3.16 µM; first compound 10 µM; hits give low values
Define the label as true (1) when viability, T/C is strictly less than 2% and as false (0) in all remaining cases.

These solved cases illustrate the format of a correct answer.
Nc1ccccc1NC(=O)c1ccc(CNC(=O)OCc2cccnc2)cc1 + CNC(=O)c1ccc(Nc2nc(OC3CCCC3)c3c(-c4ccc5nc(C)oc5c4)c[nH]c3n2)c(OC)c1
false (0)
CC1(C)CCC(CN2CCN(c3ccc(C(=O)NS(=O)(=O)c4ccc(NCC5CCOCC5)c([N+](=O)[O-])c4)c(Oc4cnc5[nH]ccc5c4)c3)CC2)=C(c2ccc(Cl)cc2)C1 + CN1CCN(c2cc(C(=O)Nc3cc4cc(-c5cnn(C)c5)ccc4cn3)ccn2)CC1
true (1)
COC1C=CCC(C)C(C)S(=O)(=O)NC(=O)c2ccc3c(c2)N(CC2CCC21)CC1(CCCc2cc(Cl)ccc21)CO3 (configuration not stated) + CNC(=O)c1ccc(Nc2nc(OC3CCCC3)c3c(-c4ccc5nc(C)oc5c4)c[nH]c3n2)c(OC)c1
false (0)
CC(CO)NC(=O)c1cc(-c2ccc(Cl)cc2)nn(-c2cnn(C)c2)c1=O (configuration not stated) + CN1CCN(c2cc(C(=O)Nc3cc4cc(-c5cnn(C)c5)ccc4cn3)ccn2)CC1
true (1)
CC(Nc1ccc2c(c1)OCCn1cc(N3C(=O)OCC3C(F)F)nc1-2)C(N)=O (configuration not stated) + CNC(=O)c1ccc(Nc2nc(OC3CCCC3)c3c(-c4ccc5nc(C)oc5c4)c[nH]c3n2)c(OC)c1
false (0)

Incoming: Here's an entry: Nc1ccn(C2OC(CO)C(O)C2(F)F)c(=O)n1 (configuration not stated) + CNC(=O)c1ccc(Nc2nc(OC3CCCC3)c3c(-c4ccc5nc(C)oc5c4)c[nH]c3n2)c(OC)c1 . Is its viability, T/C below 2%?
Outgoing: false (0)

Incoming: Here's an entry: C=CC(=O)N1CCN(c2nc(=O)n(-c3c(C)ccnc3C(C)C)c3nc(-c4c(O)cccc4F)c(F)cc23)C(C)C1 (configuration not stated) + CN1CCN(c2cc(C(=O)Nc3cc4cc(-c5cnn(C)c5)ccc4cn3)ccn2)CC1 . Is its viability, T/C below 2%?
Outgoing: true (1)

Incoming: Here's an entry: C#Cc1c(F)ccc2cc(O)cc(-c3ncc4c(N5CC6CCC(C5)N6)nc(OCC56CCCN5CC(F)C6)nc4c3F)c12 (configuration not stated) + CN1CCN(c2cc(C(=O)Nc3cc4cc(-c5cnn(C)c5)ccc4cn3)ccn2)CC1 . Is its viability, T/C below 2%?
Outgoing: true (1)

Incoming: Here's an entry: CC(=O)O[C@H]1C(=O)[C@@]2(C)[C@H]([C@H](OC(=O)c3ccccc3)[C@]3(O)C[C@H](OC(=O)[C@H](O)[C@@H](NC(=O)c4ccccc4)c4ccccc4)C(C)=C1C3(C)C)[C@]1(OC(C)=O)CO[C@@H]1C[C@@H]2O + CN1CCN(c2cc(C(=O)Nc3cc4cc(-c5cnn(C)c5)ccc4cn3)ccn2)CC1 . Is its viability, T/C below 2%?
Outgoing: true (1)

Incoming: Here's an entry: COc1cccc2c1C(=O)c1c(O)c3c(c(O)c1C2=O)CC(O)(C(=O)CO)CC3OC1CC(N)C(O)C(C)O1 (configuration not stated) + CNC(=O)c1ccc(Nc2nc(OC3CCCC3)c3c(-c4ccc5nc(C)oc5c4)c[nH]c3n2)c(OC)c1 . Is its viability, T/C below 2%?
Outgoing: true (1)

Incoming: Here's an entry: Nc1ccccc1NC(=O)c1ccc(CNC(=O)OCc2cccnc2)cc1 + CN1CCN(c2cc(C(=O)Nc3cc4cc(-c5cnn(C)c5)ccc4cn3)ccn2)CC1 . Is its viability, T/C below 2%?
Outgoing: true (1)

Incoming: Here's an entry: Nc1ccn(C2OC(CO)C(O)C2(F)F)c(=O)n1 (configuration not stated) + CN1CCN(c2cc(C(=O)Nc3cc4cc(-c5cnn(C)c5)ccc4cn3)ccn2)CC1 . Is its viability, T/C below 2%?
Outgoing: true (1)

meta.source: PubChem BioAssay AID2060624
